For each record, write down the corresponding Ki.
study system: BRD4 (BDI_K57-E168) (Homo sapiens)
protocol description: TR-FRET bromodomain binding assay, BRD4 first bromodomain (BDI)
settings: mean Ki; 12 nM His tagged BRD4 (BDI_K57-E168), 100 nM Alexa647 probe; Ki calculated from IC50, probe Kd and probe concentration
Description: A time-resolved fluorescence resonance energy transfer (TR-FRET) assay was used to determine the affinities of compounds of the Examples listed in Table 1 for each bromodomain of BRD4. […] An Alexa647-labeled BET-inhibitor was used as the fluorescent probe in the assay. […] After a one-hour equilibration at room temperature, TR-FRET ratios were determined using an Envision multilabel plate reader (Ex 340, Em 495/520). […]
Write the answer as a number in µM, unit excluded.

Inquiry: Please report the recorded Ki for CN1C(=O)[C@@]2(C[C@H]2c2cn(C)c(=O)c3[nH]c(C(=O)Nc4cccc(CO)c4)cc23)c2ccccc21 (racemic) [Example 10] .
Reply text: 2.05

Inquiry: Now consider CN1C(=O)[C@@]2(C[C@H]2c2cn(C)c(=O)c3[nH]c(-c4cccnc4)cc23)c2ccccc21 [Example 49] and answer again.
Reply text: 4.14

Inquiry: One more molecule: CN1C(=O)[C@@]2(C[C@H]2c2cn(C)c(=O)c3[nH]c(C(=O)NC4CC4)cc23)c2cc(F)ccc21 (racemic) [Example 16]
Reply text: 9.95

Inquiry: Queued: CN1C(=O)[C@@]2(C[C@H]2c2cn(C)c(=O)c3[nH]c(-c4cccnc4)cc23)c2ccccc21 (racemic) [Example 47]
Reply text: 2.62

---

study system: BRD4 (BDI_K57-E168) (Homo sapiens, UniProt O60885)
protocol description: TR-FRET bromodomain binding assay, BRD4 first bromodomain (BDI)
settings: mean Ki; 12 nM His tagged BRD4 (BDI_K57-E168), 100 nM Alexa647 probe; Ki calculated from IC50, probe Kd and probe concentration
readout name: Ki

Inquiry: Return Ki measured with BRD4 (BDI_K57-E168) (Homo sapiens, UniProt O60885) given this molecule: CN1C(=O)[C@@]2(C[C@H]2c2cn(C)c(=O)c3[nH]c(-c4ccncn4)cc23)c2ccccc21 (racemic)
Reply text: 3.42 µM

Inquiry: Same thing, different molecule: CN1C(=O)[C@@]2(C[C@H]2c2cn(C)c(=O)c3[nH]c(-c4ccnc(C(F)(F)F)c4)cc23)c2ccccc21 [Example 53]
Reply text: 2.82 µM

Inquiry: Consider next the molecule CN1C(=O)[C@@]2(C[C@H]2c2cn(C)c(=O)c3[nH]c(C(=O)NC4CC(F)(F)C4)cc23)c2ccccc21 (racemic) in the same way.
Reply text: 5.45 µM

Inquiry: Try the molecule CN1C(=O)[C@@]2(C[C@H]2c2cn(C)c(=O)c3[nH]c(C(=O)NC4CC4)cc23)c2ccc(Cl)cc21 (racemic)
Reply text: 4.53 µM

Inquiry: Also need Cn1cc([C@@H]2C[C@@]23C(=O)Nc2ccccc23)c2cc(C(=O)NC3CC3)[nH]c2c1=O (single isomer, unassigned) [Example 21] , thanks.
Reply text: > 13 µM

Inquiry: CN1C(=O)[C@@]2(C[C@@]2(C)c2cn(C)c(=O)c3[nH]c(C(=O)NC4CC4)cc23)c2ccc(OC(F)(F)F)cc21 (racemic) , same question.
Reply text: > 13 µM

Inquiry: Now consider Cn1cc([C@H]2C[C@]23C(=O)N(CC(F)(F)F)c2ccccc23)c2cc(C(=O)NC3CC3)[nH]c2c1=O .
Reply text: 4.21 µM

Inquiry: Please do the same for CN1C(=O)[C@]2(C[C@@H]2c2cn(C)c(=O)c3[nH]c(C(=O)O)cc23)c2ccccc21 (single isomer, unassigned) as well.
Reply text: > 13 µM

Inquiry: Follow-up entry: CN1C(=O)[C@@]2(C[C@H]2c2cn(C)c(=O)c3[nH]c(C4CN(C(=O)OC(C)(C)C)C4)cc23)c2ccccc21 (racemic)
Reply text: 2.41 µM

Inquiry: Can you handle Cn1cc([C@@H]2C[C@@]23C(=O)N(Cc2ccc(N)cc2)c2ccccc23)c2cc(C(=O)NC3CC3)[nH]c2c1=O (racemic) next?
Reply text: 7.43 µM

Inquiry: Entry Cc1ccc2c(c1)N(C)C(=O)[C@@]21C[C@H]1c1cn(C)c(=O)c2[nH]c(C(=O)NC3CC3)cc12 (racemic) please
Reply text: 2.95 µM

Inquiry: Similarly, CN1C(=O)[C@@]2(C[C@H]2c2cn(C)c(=O)c3[nH]c(C(=O)NC4CC4)cc23)c2ccccc21 [Example 4] ?
Reply text: > 13 µM

Inquiry: # repeat for CN1C(=O)[C@@]2(C[C@H]2c2cn(C)c(=O)c3[nH]c(C(=O)O)cc23)c2ccccc21 (single isomer, unassigned)
Reply text: > 13 µM

---

study system: BRD4 (BDI_K57-E168) (Homo sapiens)
protocol description: TR-FRET bromodomain binding assay, BRD4 first bromodomain (BDI)
settings: mean Ki; 12 nM His tagged BRD4 (BDI_K57-E168), 100 nM Alexa647 probe; Ki calculated from IC50, probe Kd and probe concentration
pKi: −log10 of the molar value.
Would you mind telling me the reported pKi of each entry?

Inquiry: Recorded pKi of CN1C(=O)[C@@]2(C[C@H]2c2cn(C)c(=O)c3[nH]c(-c4ccccn4)cc23)c2ccccc21 (racemic) , please.
Reply text: < 4.89

Inquiry: And the next one, CN1C(=O)[C@@]2(C[C@H]2c2cn(C)c(=O)c3[nH]c(C(=O)Nc4ccccc4)cc23)c2ccccc21 (racemic) ?
Reply text: < 4.89

Inquiry: // next record COCCN1C(=O)[C@@]2(C[C@H]2c2cn(C)c(=O)c3[nH]c(C(=O)NC4CC4)cc23)c2ccccc21 (racemic)
Reply text: < 4.89

Inquiry: Proceed to CN1C(=O)[C@]2(C[C@@H]2c2cn(C)c(=O)c3[nH]c(-c4ccnc(C(F)(F)F)c4)cc23)c2ccccc21
Reply text: < 4.89

Inquiry: Item: Cc1nn(C)cc1-c1cc2c([C@@H]3C[C@@]34C(=O)N(C)c3ccccc34)cn(C)c(=O)c2[nH]1 (racemic)
Reply text: < 4.89

Inquiry: Also Cn1cc([C@@H]2C[C@@]23C(=O)Nc2ccccc23)c2cc(C(=O)NC3CC3)[nH]c2c1=O (racemic) [Example 19] ?
Reply text: < 4.89
